Please go through the items and note down their TGI.
system: DMS 114 small cell lung; experiment: NCI tumour cell line growth inhibition, 48 h
Answers are plain numbers, in µM.

Cc1ccc([N+](=O)[O-])cc1NC(=O)C(=O)C(C(=O)c1ccccc1F)C1OC(=O)c2ccccc21 (stereo not given)	61.2

In the following, a different compound is considered.
// assay DMS 114 small cell lung, entry O=C1c2ccccc2C(=O)c2c(NCCNCCO)ccc(O)c21 , TGI value = 17.4

---

test system: SK-MEL-28 melanoma; experiment: NCI tumour cell line growth inhibition, 48 h; in the data active = GI50 below about 0.43 µM; inactive = the rest
Parameter call: string, one of active, inactive

Consider the worked cases shown below.
CC(C)(C)c1[nH]cnc1/C=c1\[nH]c(=O)/c(=C/c2ccccc2)[nH]c1=O	inactive
CCOc1cc2c(cc1O)/C(=N\O)C[C@@H]1[C@@H]2CC[C@]2(C)[C@@H](O)CC[C@@H]12	active
CC/C=C\C/C=C\C[C@H](O)C/C=C1/C(=O)C=C[C@@H]1C/C=C\CCCC(=O)O	inactive
CCOC(=O)c1c2c(n(Cc3ccccc3)c1C)-c1ccccc1C(=O)C2=O	inactive
COC(=O)c1ccc(NC(=O)Nc2ccc3oc(=O)c4ccccc4c3c2)cc1	inactive
CC(=O)c1cc2c(cc1Nc1c3ccccc3nc3occ(Cl)c13)OCO2	inactive
C[C@@H]1CC[C@@H]2[C@@H]1[C@H](OC(=O)/C=C/c1ccccc1)[C@]1(C3CCCCC3)C[C@@H](NC(=O)CO)[C@@]2(C)O1	inactive
Cn1c(O)c(C(/C=C/c2ccccc2)=NCCN=C(/C=C/c2ccccc2)c2c(O)n(C)c(=O)n(C)c2=O)c(=O)n(C)c1=O	inactive

Now, please, on to the next compound.
So what was the verdict on COc1ccc2nc3cc(Cl)ccc3c(N3CCN(c4ccnc(N5CCOCC5)n4)CC3)c2c1 in this test? inactive

---

tested on: MDA-MB-435; experiment: NCI tumour cell line growth inhibition, 48 h
Please go through the items and note down their TGI.
Numbers only, in µM.

CC(=O)OC(C)c1cc2c(s1)C(=O)c1scc(C(C)OC(C)=O)c1C2=O (stereo not given)	0.0815
CCOC(=O)C1=C(C)NC2SC(=O)/C(=C\c3ccccc3O)N2C1c1ccccc1 (stereo not given)	62.5
CC/C=C\C/C=C\C[C@H](O)C/C=C1/C(=O)C=C[C@@H]1C/C=C\CCCC(=O)O	12

# TGI of C[C@@H]1CC[C@@H]2[C@@H]1[C@H](OC(=O)/C=C/c1ccccc1)[C@]1(C3CCCCC3)C[C@@H](NC(=O)CO)[C@@]2(C)O1 = 32.4

---

tested on: IGROV1 ovarian; assay: NCI tumour cell line growth inhibition, 48 h
Please go through the items and note down their TGI.

O=C(O)CCSCc1ccc(I)cc1	> 100 µM
CN[C@@H](C)[C@@H](N)c1ccccc1	> 100 µM
CCCCCC[C@H]1CC(=O)C2CCCC[C@@]23CC[C@H](CCl)N13 (stereo partly specified) (tested in a mixture with another compound)	> 100 µM
O=c1oc2ccccc2c(O)c1C1c2c(c3ccccc3oc2=O)Oc2c1c(=O)oc1ccccc21	> 100 µM
O=C1C(Cl)=C(N2C(=O)CCCC2=O)C(=O)c2ccccc21	30.1 µM
Oc1ccc2oc3c(O)c4ccccc4cc3c2c1	4.21 µM

Lab note: each molecule below needs its TGI filled in.
1. Oc1c2c(c3c4c1N=CC=4CCN=3)-c1c(Br)cc(Br)cc1CCN2
2. CCN(CC)CCCNc1nc(=O)[nH]c(C)c1C(=O)Nc1c2ccccc2nc2ccccc12
3. CCOC(=O)C(C)(C(=O)OCC)/C(Cl)=C\Cl
4. Cc1ccc(C)c(NC(=O)NCc2ccc(Cl)cc2)c1
5. O=c1oc2nc(-c3ccccc3)cc(C(F)(F)F)c2n1Cc1ccccc1

1: 13.8 µM; 2: 72.6 µM; 3: > 100 µM; 4: > 100 µM; 5: > 43.5 µM

---

tested on: RXF 393 renal; experiment: NCI tumour cell line growth inhibition, 48 h
reported property: GI50

O=C(Nc1ccc(Cl)cc1F)c1cc(I)ccc1O	1.57 µM
CC/C(=C(/CC)c1ccc([O-])cc1)c1ccc([O-])cc1.CC/C(=C(\CC)c1ccc([O-])cc1)c1ccc([O-])cc1.O=C([CH-]C(=O)c1ccccc1)c1ccccc1.O=C([CH-]C(=O)c1ccccc1)c1ccccc1.O=C([CH-]C(=O)c1ccccc1)c1ccccc1.O=C([CH-]C(=O)c1ccccc1)c1ccccc1.[Ti+4].[Ti+4]	14.7 µM
CC(C)(C)c1[nH]cnc1/C=c1\[nH]c(=O)/c(=C/c2ccccc2)[nH]c1=O	< 0.01 µM

Lab note: each compound below needs its GI50 filled in.
1. CC1CCN(CCCCCOc2ccc3oc4cc(Cl)ccc4c(=O)c3c2)CC1
2. O=C(CF)N(O)c1ccc(/C=C/c2ccccc2)cc1
3. O=C(CSC(c1ccccc1)c1ccccc1)N/N=C/c1cccc(Cl)c1
4. Cn1c(O)c(C(/C=C/c2ccccc2)=NCCN=C(/C=C/c2ccccc2)c2c(O)n(C)c(=O)n(C)c2=O)c(=O)n(C)c1=O

5.75 µM
3.13 µM
13.9 µM
22.5 µM

# GI50 of CCOC(=O)/C=C/c1cc2cc(-c3csc4ccccc34)ccc2[nH]1 = 3.86 µM

---

tested on: 786-0 renal; experiment: NCI tumour cell line growth inhibition, 48 h
reported property: TGI

O=C(c1ccccc1)c1ccc(OCCOc2ccc(Nc3ccccc3)cc2)cc1	> 100 µM
Cc1ccc2nc(-c3ccc(-n4c(C)nc(=O)c(-c5ccc(F)cc5)c4C)cc3)sc2c1	29.9 µM
O=S(=O)(O)c1ccc(-c2nnc(-c3ccccn3)nc2-c2ccc(S(=O)(=O)O)o2)o1	> 100 µM
COc1cccc2c1-c1c(c3ccc([N+](=O)[O-])cc3c(=O)n1CCCCl)C2=O	17.4 µM
Nc1c(-c2nc3ccccc3o2)sc(=S)n1-c1ccc(Cl)cc1	22.9 µM

In the following, a different compound is considered.
# TGI of CCOC(=O)C(NCc1ccc2c(c1)OCO2)(NC(=O)c1ccccc1)C(F)(F)F (stereo unspecified) = > 100 µM

---

system: IGROV1 ovarian; experiment: NCI tumour cell line growth inhibition, 48 h
reported property: TGI

COc1ccc(-c2nn(-c3cccc(NC(=O)c4ccc5c(c4)OCCO5)c3)cc2-c2ccncc2)cc1Cl	57.2 µM
NNC(=S)N/N=C(/C(=O)Nc1cc(Cl)ccc1Cl)C1C(=O)Nc2ccccc2S1=O (centres undefined)	> 100 µM
CC(C)(C)CC(C)(C)c1cc2c(O)c(c1)Cc1cc(C(C)(C)CC(C)(C)C)cc(c1O)Cc1cc(C(C)(C)CC(C)(C)C)cc(c1O)Cc1cc(C(C)(C)CC(C)(C)C)cc(c1O)Cc1cc(C(C)(C)CC(C)(C)C)cc(c1O)Cc1cc(C(C)(C)CC(C)(C)C)cc(c1O)C2	> 100 µM
CSCCC(N)P(C)(=O)O (centres undefined)	> 100 µM
CC1CCN(CCCCCOc2ccc3oc4cc(Cl)ccc4c(=O)c3c2)CC1	15.3 µM
Cc1c(-c2nnc(-c3ccc(Cl)cc3)o2)c(=O)n(-c2ccccc2)n1C	> 100 µM
CCOC(=O)C(NCc1ccc2c(c1)OCO2)(NC(=O)c1ccccc1)C(F)(F)F (centres undefined)	> 100 µM
CC(=O)O[C@H](C[C@H](C(C)C)N(C)C(=O)[C@@H](NC(=O)[C@H]1CCCCN1C)C(C)C)c1nc(C(=O)N[C@@H](Cc2ccccc2)C[C@H](C)C(=O)O)c(C(C)C)s1	> 33.3 µM

In the following, a different molecule is considered.
# TGI of CC(=O)c1cccc(NC(=O)C(=O)C(C2OC(=O)c3ccccc32)[N+](=O)[O-])c1 (centres undefined) = > 100 µM

---

test system: EKVX NSCLC; assay: NCI tumour cell line growth inhibition, 48 h
Please go through the items and note down their TGI.

Examples from the recorded data:
O=C(c1ccc2ccccc2c1)N(Cc1cccnc1)C(=S)N(Cc1cccnc1)C(=O)c1ccc2ccccc2c1	77.1 µM
c1ccc(C2SCc3nc4cc5ccccc5cc4n32)cc1 (stereo not drawn)	> 100 µM
COC(=O)[C@H]1C[C@H]1NC(=O)C(CC(=O)OCc1ccccc1)NC(=O)OCc1ccccc1 (stereo partly drawn)	> 100 µM
O=C1Nc2ccccc2S/C1=C\c1ccccc1C(F)(F)F	> 100 µM
O=c1ssc(Cl)c1Nc1c(Cl)ssc1=O	41.4 µM

Lab note: each molecule below needs its TGI filled in.
1. COc1ccc(OC)c(C23CCCC(C2)N(C)CC3)c1 (stereo not drawn)
2. COc1ccc2c(c1)[n+]([O-])c(-c1ccccc1)c(N)[n+]2[O-]
3. COc1cc(C=C2N=C(c3ccccc3)N(n3c(-c4ccccc4)nc4ccccc4c3=O)C2=O)cc(OC)c1OC
4. CCOc1cc2c(cc1O)/C(=N\O)C[C@@H]1[C@@H]2CC[C@]2(C)[C@@H](O)CC[C@@H]12
5. Cc1cc2c(cc1C)[n+](=O)c(C#N)c(Cl)n2[O-]
6. CC(=O)c1c(C)n(C)c2c1nnc1ccccc12
7. CCOC(=O)c1cc2c(nc1N)-c1ncccc1CC2

["> 100 µM", "> 100 µM", "83.5 µM", "> 100 µM", "28.5 µM", "50.3 µM", "> 100 µM"]

Lab note: each molecule below needs its TGI filled in.
1. Cc1cc(C2=NNC(=O)Cc3cc4c(cc32)OCCO4)cc(C)c1N
2. C=C(C)C1CC2(C)C(C)CC(OC(=O)/C(C)=C\C)CC2C(OC(=O)/C(C)=C\C)C1O (stereo not drawn)
3. c1ccc(-c2cc(C3CO3)c3ccccc3n2)cc1 (stereo not drawn)
4. Nc1ccc(N=Nc2ccc(-c3ccc(O)cc3)cc2)c2ccc(S(=O)(=O)O)cc12

1: > 100 µM; 2: > 100 µM; 3: 34.1 µM; 4: > 100 µM

Lab note: each molecule below needs its TGI filled in.
1. O=C1Nc2ccccc2S/C1=C\c1cccc(C(F)(F)F)c1
2. CN(C)c1ncnc2c1nnn2C1OC(CO)C(O)C1O (stereo not drawn)
3. CCOC(=O)Nc1cc2c(c(N)n1)N=C(c1ccccc1)[C@H](C)N2
4. COc1cccc2c1-c1c(c3ccc([N+](=O)[O-])cc3c(=O)n1CCCCl)C2=O
5. CC(=O)OC[C@@H]1[C@H]2CC[C@]3(C)[C@@H](OC(C)=O)CC[C@H]3[C@@H]2CC[C@H]1C1(C)SCCS1
6. O=c1c2ccccc2n2n1CC(O)C2 (stereo not drawn)

1: > 100 µM; 2: > 100 µM; 3: > 100 µM; 4: > 50 µM; 5: > 25 µM; 6: > 100 µM

Lab note: each molecule below needs its TGI filled in.
1. Oc1c2c(c3c4c1N=CC=4CCN=3)-c1c(Br)cc(Br)cc1CCN2
2. CNC(=O)c1ccc2cc(C3(O)CCn4cncc43)ccc2c1 (stereo not drawn)
3. CCN1C(NN)=NS(=O)(=O)c2ccccc21
4. COC1CCC(O)C(/C=C/[N+](=O)[O-])C1 (stereo not drawn)

17.4 µM
> 100 µM
> 100 µM
15.1 µM

Lab note: each molecule below needs its TGI filled in.
1. Cc1n[nH]c(=O)n1/N=C/c1cccs1
2. O=C(CC(C(=O)c1ccco1)c1cccs1)c1cccs1 (stereo not drawn)

1. > 100 µM
2. 97.8 µM

Lab note: each molecule below needs its TGI filled in.
1. O=C(Nc1ccc(Cl)cc1F)c1cc(I)ccc1O
2. O=C1c2ccccc2C(=O)c2c1ccc1nc3c(nc21)-c1c2ccccc2cc2cccc-3c12
3. C[C@]12CCc3nonc3C1CC[C@@H]1C2CC[C@]2(C)NC(=O)CCC12 (stereo partly drawn)
4. O=C1C(c2c(O)[nH]c3ccc(S(=O)(=O)O)cc23)=Nc2ccc(Br)cc21
5. C/C1=C/C2=CC(C)C[C@@H]2C(=O)[C@]2(C)C(=O)CC(C)(C)[C@H]2CC1=O (stereo partly drawn)
6. C[C@@H]1CC[C@@H]2[C@@H]1[C@H](OC(=O)/C=C/c1ccccc1)[C@]1(C3CCCCC3)C[C@@H](NC(=O)CO)[C@@]2(C)O1
7. O=C1CCCC/C1=C1\C(=O)Nc2cc(F)ccc21
8. O=C(NNc1ccnc2cc(Cl)ccc12)/C(=C\c1ccccc1Cl)NC(=O)c1ccccc1

8.8 µM
> 100 µM
> 100 µM
> 100 µM
> 50 µM
27.5 µM
> 100 µM
> 100 µM

Lab note: each molecule below needs its TGI filled in.
1. Cc1ccc(C)c(NC(=O)NCc2ccc(Cl)cc2)c1
2. Cn1cc(-c2cnc(-c3cn(C)c4ccccc34)cn2)c2ccccc21
3. O=[N+]([O-])c1ccc2c(c1)Nc1c3ccccc3nc3cccc-2c13
4. N=c1nc2n(cc1F)[C@@H]1O[C@H](CO)[C@@H](O)[C@@H]1O2
5. CC(=O)Nc1sc([N+](=O)[O-])cc1S(=O)(=O)c1ccc(Cl)cc1
6. COC(=O)[C@]12CSC[C@H]1C[C@H](c1ccccc1OC)N2

1. > 100 µM
2. > 100 µM
3. 48.7 µM
4. > 100 µM
5. > 100 µM
6. > 100 µM

# TGI of CN1CCN(Cc2ccc(NC(=O)c3cncc(C#Cc4cncc5ncccc45)c3)cc2C(F)(F)F)CC1 = 16.8 µM
